Reference source for all entries: ChEMBL document CHEMBL3988442

target: Arginase-2, mitochondrial (Homo sapiens) (UniProt P78540); assay: in vitro enzyme assay to detect the production of urea directly proportional to the activity of Arginase II; assay type: functional; set-up: scale not given: in the data most compounds retested in dose-response had high values; conditions: 33.3 µM
Sequence (P78540 whole entry): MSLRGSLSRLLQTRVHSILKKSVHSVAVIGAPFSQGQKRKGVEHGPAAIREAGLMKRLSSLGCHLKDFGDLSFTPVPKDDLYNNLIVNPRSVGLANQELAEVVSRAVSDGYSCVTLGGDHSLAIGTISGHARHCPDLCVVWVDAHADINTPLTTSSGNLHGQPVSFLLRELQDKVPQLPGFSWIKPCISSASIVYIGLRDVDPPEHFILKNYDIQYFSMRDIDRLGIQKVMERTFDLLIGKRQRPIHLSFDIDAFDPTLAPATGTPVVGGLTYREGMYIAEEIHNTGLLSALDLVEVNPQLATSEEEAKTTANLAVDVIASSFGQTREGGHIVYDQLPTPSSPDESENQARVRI
OUTCOME_MEASURE: Percent Effect (%)
Answers are plain numbers, in %.

**Query** Checklist item: Percent Effect tested on Arginase-2, mitochondrial (Homo sapiens) (UniProt P78540), entry `O=C(NCc1nnc2n1CCCCC2)N1CCc2sccc2C1` , value?
**Result** 2.8

**Query** Checklist item: Percent Effect tested on Arginase-2, mitochondrial (Homo sapiens) (UniProt P78540), entry CNc1cccc(C2CCCN(C(=O)c3ccncc3)C2)n1 (configuration not stated) , value?
**Result** -0.232

**Query** Checklist item: Percent Effect tested on Arginase-2, mitochondrial (Homo sapiens) (UniProt P78540), entry CCN1CC(C(=O)NC(C)(C)CNC(=O)OC(C)(C)C)CC1=O (configuration not stated) , value?
**Result** 4.22

**Query** Checklist item: Percent Effect tested on Arginase-2, mitochondrial (Homo sapiens) (UniProt P78540), entry `COc1ccnc(N2CCN(C(=O)c3csc(C(C)C)n3)CC2)n1` , value?
**Result** 5.21

**Query** Checklist item: Percent Effect tested on Arginase-2, mitochondrial (Homo sapiens) (UniProt P78540), entry O=C(CS(=O)(=O)CC1CCCCC1)NC1CCCCNC1=O (configuration not stated) , value?
**Result** -6.05

Give Percent Effect for all compounds that follow.
1. Cc1cnn(CC2CCCCN2CCC(=O)Nc2cc(C)on2)c1 (configuration not stated)
2. Cc1cc(NC(=O)c2nc(N3CCCC3)ncc2Cl)nc(C(C)C)n1
3. CCc1nccn1C1CCCN(C(=O)c2ccc3c(c2)OCO3)C1 (configuration not stated)
4. CCc1nc(CN2CCCC(NCc3nnc(C4CC4)o3)C2)no1 (configuration not stated)
5. Cc1cccc(N2CCN(CCNC(=O)C(C)n3cncn3)CC2)c1 (configuration not stated)
6. CCOC(=O)NC(C(=O)NCc1ccc(N2CCCCC2)nc1)C(C)C (configuration not stated)
7. Cc1oc(C)c(C(=O)NCc2ccccn2)c1C

**Result**
1. -1.07
2. 3.33
3. -3.2
4. -0.632
5. -3.96
6. 0
7. 7.28
